- Test system: IL-36γ evoked CXCL1 release from Mouse NIH-3T3 cells
- PROTOCOL_SUMMARY: IL-36γ evoked CXCL1 release, mouse NIH-3T3 cells
- Assay type: cell-based
- EXPERIMENTAL_CONDITIONS: human IL-36γ evoked CXCL1 release, ± S.D.
Consider the following compounds and their measured Ki readings.
Give the quantity in nM, number only.

Please review the following examples before continuing.
COC(c1ccccc1)(c1ccccc1)C(Oc1nc(C)cc(-c2ccc(C)c(N)c2)n1)C(=O)O (stereo not drawn) [Compound A-706]
181
COC(c1ccccc1)(c1ccccc1)[C@@H](Oc1nc(C)cc(-c2ccc(C)c(N)c2)n1)C(=O)O [Compound A-553]
3700

Then there is this compound:
Fill in: Ki of COC(c1ccccc1)(c1ccccc1)[C@H](Oc1nc(C)cc(-c2ccc(C)c(N)c2)n1)C(=O)O [Compound A-552] is ___
54
